system tested: human β3 adrenergic receptor (Homo sapiens, UniProt P13945)
Construct: expressed in transfected cells; host or cells: Chinese hamster ovary (CHO) cells, stably transfected
Sequence (P13945 whole entry): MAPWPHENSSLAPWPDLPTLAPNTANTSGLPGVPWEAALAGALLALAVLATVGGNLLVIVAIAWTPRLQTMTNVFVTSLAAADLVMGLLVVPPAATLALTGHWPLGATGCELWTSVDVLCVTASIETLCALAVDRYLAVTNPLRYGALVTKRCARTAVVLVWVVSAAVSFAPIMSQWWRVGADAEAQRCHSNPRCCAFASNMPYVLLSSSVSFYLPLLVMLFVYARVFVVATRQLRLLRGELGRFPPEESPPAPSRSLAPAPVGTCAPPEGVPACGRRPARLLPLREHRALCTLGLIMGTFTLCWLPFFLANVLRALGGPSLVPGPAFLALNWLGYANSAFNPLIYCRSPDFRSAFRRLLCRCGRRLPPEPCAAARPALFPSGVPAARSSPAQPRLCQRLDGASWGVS
method description: Beta-3 agonist in vitro functional assay: cAMP production (LANCE TR-FRET) in CHO cells stably transfected with the cloned β3 receptor
Type: cell-based
test context: Table 12; human β3 functional activity given as ranges; read-out: Human β3 agonist functional activity
pEC50: −log10 of the molar value.
readout: pEC50

Qu. Give the measured pEC50 of CC(c1ccn(C)n1)N1CCN(C(=O)c2ccc(CC3CCC(C(O)c4ccccc4)N3)cc2)CC1 (single isomer, unassigned) [Example 578] .
Ans. 6.00 to 7.00

Qu. Give the measured pEC50 of O=C(c1ccc(CC2CCC(C(O)c3ccccc3)N2)cc1)N1CCC2(CC1)C(=O)NCC2c1ccc(F)cc1 (single isomer, unassigned) [Example 558] .
Ans. > 9.00

Qu. Give the measured pEC50 of CC(c1ncco1)N1CCN(C(=O)c2ccc(CC3CCC(C(O)c4ccccc4)N3)cc2)CC1 (single isomer, unassigned) [Example 584] .
Ans. 7.00 to 8.00

* * *

Field: pEC50. Provide a value for each of the compounds that follow.
system tested: human β3 adrenergic receptor (Homo sapiens, UniProt P13945)
Construct: expressed in transfected cells; host or cells: Chinese hamster ovary (CHO) cells, stably transfected
method description: Beta-3 agonist in vitro functional assay: cAMP production (LANCE TR-FRET) in CHO cells stably transfected with the cloned β3 receptor
Type: cell-based
test context: Table 4; cAMP, CHO cells; read-out: Human β3 agonist functional activity
Procedure: Chinese hamster ovary (CHO) cells, stably transfected with the cloned β-adrenergic receptor (β1, β2 or β3) are harvested after 3 days of subculturing. Harvesting of cells is done with Enzyme-free Dissociation Media (Specialty Media). Cells are then counted and resuspended in assay buffer (Hank's Balanced salt solution supplemented with 5 mM HEPES, […]) containing a phosphodiesterase inhibitor (IBMX, 0.6 mM). […]
pEC50: −log10 of the molar value.

Qu. Query the reported pEC50 for human β3 adrenergic receptor (Homo sapiens, UniProt P13945); item: NC(=O)C1(F)CN(C(=O)c2ccc(C[C@@H]3CC[C@H]([C@H](O)c4ccccc4)N3)cc2)C1 [Example 4]
Ans. 6.00 to 7.00

Qu. Query the reported pEC50 for human β3 adrenergic receptor (Homo sapiens, UniProt P13945); item: O=C(OCc1ccccc1)N1CC2(C1)CN(C(=O)c1ccc(C[C@@H]3CC[C@H]([C@H](O)c4ccccc4)N3)cc1)C2 [Example 5]
Ans. 6.00 to 7.00

Qu. Query the reported pEC50 for human β3 adrenergic receptor (Homo sapiens, UniProt P13945); item: CO[C@H]1CCN(C(=O)c2ccc(C[C@@H]3CC[C@H]([C@H](O)c4ccccc4)N3)cc2)C1 [Example 8]
Ans. 6.00 to 7.00

Qu. Query the reported pEC50 for human β3 adrenergic receptor (Homo sapiens, UniProt P13945); item: O=C(c1ccc(C[C@@H]2CC[C@H]([C@H](O)c3ccccc3)N2)cc1)N1CCc2oncc2C1 [Example 55]
Ans. 6.00 to 7.00

Qu. Query the reported pEC50 for human β3 adrenergic receptor (Homo sapiens, UniProt P13945); item: O=C(c1ccc(C[C@@H]2CC[C@H]([C@H](O)c3ccccc3)N2)cc1)N1CCCC(S(=O)(=O)c2ncc(Br)s2)C1 (stereo partly shown) [Example 38]
Ans. 7.00 to 8.00

Qu. Query the reported pEC50 for human β3 adrenergic receptor (Homo sapiens, UniProt P13945); item: O=C(c1ccc(C[C@@H]2CC[C@H]([C@H](O)c3ccccc3)N2)cc1)N1CCc2onc(O)c2C1 [Example 53]
Ans. 5.52 to 6.00

Qu. Query the reported pEC50 for human β3 adrenergic receptor (Homo sapiens, UniProt P13945); item: O=C(c1ccc(C[C@@H]2CC[C@H]([C@H](O)c3ccccc3)N2)cc1)N1CCCC(c2nc3ccccc3o2)C1 (stereo partly shown) [Example 33]
Ans. 6.00 to 7.00

* * *

system tested: human β3 adrenergic receptor (Homo sapiens, UniProt P13945)
Construct: expressed in transfected cells; host or cells: Chinese hamster ovary (CHO) cells, stably transfected
method description: Beta-3 agonist in vitro functional assay: cAMP production (LANCE TR-FRET) in CHO cells stably transfected with the cloned β3 receptor
Type: cell-based
test context: Table 10; Beta-3 agonist in vitro functional assay; read-out: Human β3 agonist functional activity
Protocol: Chinese hamster ovary (CHO) cells, stably transfected with the cloned β-adrenergic receptor (β1, β2 or β3) are harvested after 3 days of subculturing. Harvesting of cells is done with Enzyme-free Dissociation Media (Specialty Media). Cells are then counted and resuspended in assay buffer (Hank's Balanced salt solution supplemented with 5 mM HEPES, […]) containing a phosphodiesterase inhibitor (IBMX, 0.6 mM). […]
pEC50: −log10 of the molar value.
readout: pEC50

Qu. Give the measured pEC50 of CC(C(=O)N1CCCC2(CCC2)C1)N1CCN(C(=O)c2ccc(C[C@@H]3CC[C@H]([C@H](O)c4ccccc4)N3)cc2)CC1 (stereo partly shown) [Example 496] .
Ans. 7.00 to 8.00

Qu. Give the measured pEC50 of CC(C(=O)NC(C)(C)CO)N1CCN(C(=O)c2ccc(C[C@@H]3CC[C@H]([C@H](O)c4ccccc4)N3)cc2)CC1 (stereo partly shown) [Example 444] .
Ans. 6.00 to 7.00

Qu. Give the measured pEC50 of CC(C(=O)N(C1CC1)C1CC1)N1CCN(C(=O)c2ccc(C[C@@H]3CC[C@H]([C@H](O)c4ccccc4)N3)cc2)CC1 (stereo partly shown) [Example 522] .
Ans. 7.00 to 8.00

Qu. Give the measured pEC50 of COC(=O)C(C)N1CCN(C(=O)c2ccc(C[C@@H]3CC[C@H]([C@H](O)c4ccccc4)N3)cc2)CC1 (stereo partly shown) [Example 434] .
Ans. 8.00 to 9.00

Qu. Give the measured pEC50 of CC(C(=O)N1CCCCC12CC2)N1CCN(C(=O)c2ccc(C[C@@H]3CC[C@H]([C@H](O)c4ccccc4)N3)cc2)CC1 (stereo partly shown) [Example 493] .
Ans. 7.00 to 8.00

Qu. Give the measured pEC50 of CC(C(=O)N1CCn2ccnc2C1)N1CCN(C(=O)c2ccc(C[C@@H]3CC[C@H]([C@H](O)c4ccccc4)N3)cc2)CC1 (stereo partly shown) [Example 502] .
Ans. 7.00 to 8.00

Qu. Give the measured pEC50 of CC(C(=O)NCC1CC1(C)C)N1CCN(C(=O)c2ccc(C[C@@H]3CC[C@H]([C@H](O)c4ccccc4)N3)cc2)CC1 (stereo partly shown) [Example 450] .
Ans. 7.00 to 8.00

Qu. Give the measured pEC50 of CC(C(=O)NCc1nccn1C)N1CCN(C(=O)c2ccc(C[C@@H]3CC[C@H]([C@H](O)c4ccccc4)N3)cc2)CC1 (stereo partly shown) [Example 463] .
Ans. 6.00 to 7.00

Qu. Give the measured pEC50 of CC1CCCN(C(=O)C(C)N2CCN(C(=O)c3ccc(C[C@@H]4CC[C@H]([C@H](O)c5ccccc5)N4)cc3)CC2)C1 (stereo partly shown) [Example 486] .
Ans. 7.00 to 8.00

Qu. Give the measured pEC50 of CC(C(=O)NCC1(O)CC1)N1CCN(C(=O)c2ccc(C[C@@H]3CC[C@H]([C@H](O)c4ccccc4)N3)cc2)CC1 (stereo partly shown) [Example 449] .
Ans. 7.00 to 8.00

Qu. Give the measured pEC50 of CC(C(=O)NC1CCS(=O)(=O)CC1)N1CCN(C(=O)c2ccc(C[C@@H]3CC[C@H]([C@H](O)c4ccccc4)N3)cc2)CC1 (stereo partly shown) [Example 469] .
Ans. 7.00 to 8.00

Qu. Give the measured pEC50 of CC(C(=O)N1CCCCC1)N1CCN(C(=O)c2ccc(C[C@@H]3CC[C@H]([C@H](O)c4ccccc4)N3)cc2)CC1 (stereo partly shown) [Example 484] .
Ans. 7.00 to 8.00

Qu. Give the measured pEC50 of CC(C(=O)N(C)C(C)(C)C)N1CCN(C(=O)c2ccc(C[C@@H]3CC[C@H]([C@H](O)c4ccccc4)N3)cc2)CC1 (stereo partly shown) [Example 517] .
Ans. 6.00 to 7.00

* * *

system tested: human β3 adrenergic receptor (Homo sapiens, UniProt P13945)
Construct: expressed in transfected cells; host or cells: Chinese hamster ovary (CHO) cells, stably transfected
method description: Beta-3 agonist in vitro functional assay: cAMP production (LANCE TR-FRET) in CHO cells stably transfected with the cloned β3 receptor
Type: cell-based
test context: Table 4; cAMP, CHO cells; read-out: Human β3 agonist functional activity
pEC50: −log10 of the molar value.
readout: pEC50

Qu. Give the measured pEC50 of O=C(c1ccc(C[C@@H]2CC[C@H]([C@H](O)c3ccccc3)N2)cc1)N1CC2CC(n3cncn3)CC2C1 (stereo partly shown) [Example 22] .
Ans. 6.00 to 7.00

Qu. Give the measured pEC50 of C[C@@H]1CN(C(=O)c2ccc(C[C@@H]3CC[C@H]([C@H](O)c4ccccc4)N3)cc2)CC[C@H]1n1cccn1 [Example 61] .
Ans. 6.00 to 7.00

Qu. Give the measured pEC50 of Cc1nonc1C1CCCN1C(=O)c1ccc(C[C@@H]2CC[C@H]([C@H](O)c3ccccc3)N2)cc1 (stereo partly shown) [Example 14] .
Ans. 6.00 to 7.00

Qu. Give the measured pEC50 of O=C(c1ccc(C[C@@H]2CC[C@H]([C@H](O)c3ccccc3)N2)cc1)N1CC2CC(n3ncnn3)CC2C1 (stereo partly shown) [Example 19] .
Ans. 7.00 to 8.00
